Reference source: paper PMC9856062

Listed compounds paired with reported pIC50
Target: CDK1 (Homo sapiens, UniProt P06493)
Sequence (P06493 whole entry): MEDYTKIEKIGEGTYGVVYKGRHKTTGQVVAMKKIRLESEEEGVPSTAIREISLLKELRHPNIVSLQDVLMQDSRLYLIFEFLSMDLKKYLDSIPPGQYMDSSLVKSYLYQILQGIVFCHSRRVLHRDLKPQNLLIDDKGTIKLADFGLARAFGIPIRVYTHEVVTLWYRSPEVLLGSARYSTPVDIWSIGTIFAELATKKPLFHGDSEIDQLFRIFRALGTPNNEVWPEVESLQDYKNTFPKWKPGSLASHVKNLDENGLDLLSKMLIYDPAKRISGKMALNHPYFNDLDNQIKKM
Sequence (P14635 whole entry partner): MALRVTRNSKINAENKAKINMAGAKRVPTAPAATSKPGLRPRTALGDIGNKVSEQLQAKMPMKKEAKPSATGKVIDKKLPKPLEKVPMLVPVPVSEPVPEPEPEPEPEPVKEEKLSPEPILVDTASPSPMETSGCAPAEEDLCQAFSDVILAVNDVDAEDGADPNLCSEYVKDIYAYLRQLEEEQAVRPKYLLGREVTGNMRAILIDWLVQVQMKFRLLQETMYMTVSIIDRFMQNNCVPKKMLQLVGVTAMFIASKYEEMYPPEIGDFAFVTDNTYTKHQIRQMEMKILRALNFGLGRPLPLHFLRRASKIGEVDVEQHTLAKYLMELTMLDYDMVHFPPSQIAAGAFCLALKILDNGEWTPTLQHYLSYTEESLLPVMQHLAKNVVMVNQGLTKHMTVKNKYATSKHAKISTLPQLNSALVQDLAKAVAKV
Assay: CDK1 kinase assay (ADP-Glo / Kinase-Glo luminescence)
Assay type: biochemical
Design: 1 mg of CDK1 antibodies were used to immunoprecipitate 1 mg of protein from the total cell lysate; endogenous in cells; host or cells: total cell lysate
Scale: pIC50 equals -log10([C]), with [C] in mol/L.

Cc1cc(-c2ccc(C3C(C#N)=C(N)Oc4[nH]nc(C)c43)cc2)cnc1F (centres unmarked); 5.15

Okay, next one:
Query block: Name the recorded pIC50 for Cc1cc(-c2cccc(C3C(C#N)=C(N)Oc4[nH]nc(C)c43)c2)cnc1F (centres unmarked) .
Result block: 6.02
